TGT: von Willebrand factor full length (Homo sapiens, UniProt P04275 SEQ:764-2813)
ASSAY INFO: filter
STUDY CONDITIONS: tags: Calbiochem 681300
MEASURED METRIC: Kd
Show the value, then the unit it is measured in.

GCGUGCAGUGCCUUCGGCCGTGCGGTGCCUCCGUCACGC (mixed, 2'-OMe at 1-4,8-18,20,22,27,28,30,33,34,36-39, rest deoxy; PS between 23 and 24; 3'-idT) [ARC1371] = 8.4 nM
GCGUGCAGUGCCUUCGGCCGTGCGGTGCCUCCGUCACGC (mixed, 2'-OMe at 1-4,8-18,20,22,27,28,30,33,34,36-39, rest deoxy; PS between 32 and 33; 3'-idT) [ARC1379] = 10.4 nM
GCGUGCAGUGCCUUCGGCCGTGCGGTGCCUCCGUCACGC (mixed, 2'-OMe at 1-4,8-18,20,22,27,28,30,33,34,36-39, rest deoxy; PS between 34 and 35; 3'-idT) [ARC1380] = 12 nM

Asked: Return reported Kd; argument: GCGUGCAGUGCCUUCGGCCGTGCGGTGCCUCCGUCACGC (mixed, 2'-OMe at 1-4,8-18,20,22,27,28,30,33,34,36-39, rest deoxy; PS between 22 and 23; 3'-idT) [ARC1370]
Given back: 10.1 nM

Asked: For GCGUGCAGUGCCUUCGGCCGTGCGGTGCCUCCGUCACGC (mixed, 2'-OMe at 1-4,8-18,20,22,27,28,30,33,34,36-39, rest deoxy; PS between 24 and 25; 3'-idT) [ARC1372] , what is its reported Kd?
Given back: 23.5 nM

Asked: Item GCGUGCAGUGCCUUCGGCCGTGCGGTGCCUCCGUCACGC (mixed, 2'-OMe at 1-4,8-18,20,22,27,28,30,33,34,36-39, rest deoxy; PS between 31 and 32; 3'-idT) [ARC1378] has what recorded Kd?
Given back: 9.1 nM
